Target: OATP1B1 (Homo sapiens)
Construct: expressed in transfected cells
Sequence (Q9Y6L6 whole entry): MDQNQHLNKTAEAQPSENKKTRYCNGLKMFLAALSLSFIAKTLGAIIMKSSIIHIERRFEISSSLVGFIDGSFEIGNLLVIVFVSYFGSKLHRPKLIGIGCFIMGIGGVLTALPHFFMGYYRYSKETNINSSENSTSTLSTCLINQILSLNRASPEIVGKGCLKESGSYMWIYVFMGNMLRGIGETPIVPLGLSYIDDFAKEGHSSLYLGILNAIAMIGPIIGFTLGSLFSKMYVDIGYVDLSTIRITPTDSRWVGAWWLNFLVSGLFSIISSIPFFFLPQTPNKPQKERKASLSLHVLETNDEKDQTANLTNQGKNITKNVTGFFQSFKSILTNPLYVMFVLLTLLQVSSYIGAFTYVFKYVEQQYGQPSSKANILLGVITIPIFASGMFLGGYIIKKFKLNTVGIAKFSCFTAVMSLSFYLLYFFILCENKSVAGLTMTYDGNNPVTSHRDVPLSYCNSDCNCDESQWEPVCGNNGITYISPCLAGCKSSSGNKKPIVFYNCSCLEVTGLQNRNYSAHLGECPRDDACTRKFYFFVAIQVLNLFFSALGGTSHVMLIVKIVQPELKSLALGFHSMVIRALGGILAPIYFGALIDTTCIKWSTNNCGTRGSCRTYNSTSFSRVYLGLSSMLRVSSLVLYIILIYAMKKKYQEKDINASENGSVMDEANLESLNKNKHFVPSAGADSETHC
Test: Uptake into stable transfected OATP1B1 HEK 293 cells
Format: cell-based
Settings: 100 μM, 40 min, relative to RC1 (Gd-EOB-DTPA)
As shown below, each of these compounds has a reported Uptake into OATP1B1-HEK 293 cells value.
REPORTED_ENDPOINT: Uptake into OATP1B1-HEK 293 cells

| COMPOUND | REPORTED_ENDPOINT | VALUE_MEASURED |
| --- | --- | --- |
| CCOCCOCCOCCOc1ccc(C[C@H]2CN(CC(=O)[O-])CCN(CC(=O)[O-])CCN(CC(=O)O)CCN2CC(=O)[O-])cc1.[Gd+3] | Uptake into OATP1B1-HEK 293 cells | 78 % of RC1 |
| COCCOCCOCCOc1ccc(C[C@H]2CN(CC(=O)[O-])CCN(CC(=O)[O-])CCN(CC(=O)O)CCN2CC(=O)[O-])cc1.[Gd+3] | Uptake into OATP1B1-HEK 293 cells | 143 % of RC1 |
| CCCCOc1ccc(C[C@H]2CN(CC(=O)[O-])CCN(CC(=O)[O-])CCN(CC(=O)O)CCN2CC(=O)[O-])cc1.[Gd+3] (single isomer, unassigned; stereoisomer 1) [Example 12] | Uptake into OATP1B1-HEK 293 cells | 119 % of RC1 |
| CCOc1ccc(CC2CN(CC(=O)[O-])CCN(CC(=O)[O-])CCN(CC(=O)O)CCN2CC(=O)[O-])cc1.[Gd+3] (single isomer, unassigned; diastereomer 2) [Example 9] | Uptake into OATP1B1-HEK 293 cells | 60 % of RC1 |
| CCOc1ccc(CC2CN(CC(=O)[O-])CCN(CC(=O)[O-])CCN(CC(=O)O)CCN2CC(=O)[O-])cc1.[Gd+3] (single isomer, unassigned; diastereomer 1) [Example 8] | Uptake into OATP1B1-HEK 293 cells | 208 % of RC1 |
| CCOc1ccc(C[C@H]2CN(CC(=O)[O-])CCN(CC(=O)[O-])CCN(CC(=O)O)CCN2CC(=O)[O-])cc1.[Gd+3] (single isomer, unassigned; stereoisomer 2) [Example 11] | Uptake into OATP1B1-HEK 293 cells | 96 % of RC1 |
| CCOCCOc1ccc(C[C@H]2CN(CC(=O)[O-])CCN(CC(=O)[O-])CCN(CC(=O)O)CCN2CC(=O)[O-])cc1.[Gd+3] | Uptake into OATP1B1-HEK 293 cells | 65 % of RC1 |
| CCOc1ccc(C[C@H]2CN(CC(=O)[O-])CCN(CC(=O)[O-])CCN(CC(=O)O)CCN2CC(=O)[O-])cc1.[Gd+3] (single isomer, unassigned; stereoisomer 1) [Example 10] | Uptake into OATP1B1-HEK 293 cells | 212 % of RC1 |
| CCOc1ccc(CC2CN(CC(=O)[O-])CCN(CC(=O)[O-])CCN(CC(=O)O)CCN2CC(=O)[O-])cc1.[Gd+3] (stereo not shown) [Example 7] | Uptake into OATP1B1-HEK 293 cells | 103 % of RC1 |
| COCCOCCOCCOc1ccc(C[C@@H]2CN(CC(=O)[O-])CCN(CC(=O)[O-])CCN(CC(=O)O)CCN2CC(=O)[O-])cc1.[Gd+3] | Uptake into OATP1B1-HEK 293 cells | 120 % of RC1 |
| CCOCCOCCOc1ccc(C[C@H]2CN(CC(=O)[O-])CCN(CC(=O)[O-])CCN(CC(=O)O)CCN2CC(=O)[O-])nc1.[Gd+3] | Uptake into OATP1B1-HEK 293 cells | 174 % of RC1 |
| CCCCOc1ccc(C[C@H]2CN(CC(=O)[O-])CCN(CC(=O)[O-])CCN(CC(=O)O)CCN2CC(=O)[O-])cc1.[Gd+3] (single isomer, unassigned; stereoisomer 2) [Example 13] | Uptake into OATP1B1-HEK 293 cells | 847 % of RC1 |
| CCOCCOCCOc1ccc(C[C@H]2CN(CC(=O)[O-])CCN(CC(=O)[O-])CCN(CC(=O)O)CCN2CC(=O)[O-])cc1.[Gd+3] | Uptake into OATP1B1-HEK 293 cells | 282 % of RC1 |
